# Tested on: rabbit vWF domain A1 binding to lyophilized platelets
# Sequence (as listed by the source): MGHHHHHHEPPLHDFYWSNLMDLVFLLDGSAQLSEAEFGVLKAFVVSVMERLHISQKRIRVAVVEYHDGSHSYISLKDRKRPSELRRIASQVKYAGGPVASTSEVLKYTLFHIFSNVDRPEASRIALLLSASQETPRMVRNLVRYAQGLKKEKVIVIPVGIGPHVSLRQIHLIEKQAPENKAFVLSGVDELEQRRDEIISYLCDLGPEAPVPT
# TEST_NAME: Rabbit von Willebrand Factor domain A1 platelet binding assay (FACS)
# Format: cell-based
# APPLIED_CONDITIONS: 4 nM rabbit A1 vWF, lyophilized platelets, botrocetin; read-out: Inhibition of rabbit VWF A1 domain binding in FACS assay, Average IC50
Oligonucleotides are written 5' to 3', each unit as a sugar letter and its base; * is a phosphorothioate linkage, no mark a phosphodiester; rarer units and linkages stand in square brackets, end groups in braces. Plain capitals give the bases only. [invdT] = inverted (3'-3') thymidine; d = 2'-deoxy (DNA); r = 2'-OH (RNA); f = 2'-fluoro
VALUE_KIND: IC50 (nM)
The reply should be a number in nM, with the unit left off.

Below, 6 substances whose answers are already recorded.
INSERT INTO results (substance, value_kind, test_result) VALUES
  ('GGACCACCCUCGCAACGAGAGUUGUGCCGCUGGUCC (rGrGrAfCfCrAfCfCfCfUfCrGfCrArAfCrGrArGrArGfUfUrGfUrGfCfCrGfCfUrGrGfUfCfC) [SEQ ID NO 174, minimized rRfY aptamer]', 'IC50', 6.8),
  ('GGCCACACGACATTGGCGGGCGAGAGCCACGCATGGCC (rGrGdCdCrAdCrAdCrGrAdCrAdTdTrGrGdCrGrGrGdCrGrArGrArGdCdCrAdCrGdCrAdTrGrGdCdC) [SEQ ID NO 198, minimized rRdY aptamer]', 'IC50', 12.6),
  ('dGCGTGCAGTGCCT-[PEG]-AGGCCGTGCGGTGCCTCCGTCACGCC-3T (DNA GCGTGCAGTGCCTAGGCCGTGCGGTGCCTCCGTCACGCCT; chemistry not fully specified) [ARC1028, minimized DNA aptamer]', 'IC50', 1.5),
  ('GGAGCCACACGACATTGGCGGGCGAGAGCCACGCATGGCTCC (rGrGrArGdCdCrAdCrAdCrGrAdCrAdTdTrGrGdCrGrGrGdCrGrArGrArGdCdCrAdCrGdCrAdTrGrGdCdTdCdC) [SEQ ID NO 192, minimized rRdY aptamer]', 'IC50', 2.2),
  ('GGCGTGCAGTGCC-[PEG]-GGCCGTGCGGTGCCTCCGTCACGCC-3T (DNA GGCGTGCAGTGCCGGCCGTGCGGTGCCTCCGTCACGCCT; chemistry not fully specified) [ARC1029, minimized DNA aptamer]', 'IC50', 0.754),
  ('GGAGCCACGGGGTGGGTAGACGGCGGGTATGTGGCTCC (rGrGrArGdCdCrAdCrGrGrGrGdTrGrGrGdTrArGrAdCrGrGdCrGrGrGdTrAdTrGdTrGrGdCdTdCdC) [SEQ ID NO 180, minimized rRdY aptamer]', 'IC50', 9.3);

Could you now consider this next substance?
Req: Enter IC50 (test system rabbit vWF domain A1 binding to lyophilized platelets) for GGCGTGCAGTGCCTATTCTAGGCCGTGCGGTGCCTCCGTCACGCC-3T (DNA, [invdT] at 3' end, backbone not given here) [ARC 1027, minimized DNA aptamer]
Resp: 2
